Source listed as ChEMBL document CHEMBL1201862.

Test system: IGROV-1
Test: NCI tumour cell line growth inhibition, 48 h
The source made the active and inactive calls. Cut-off read from the data, not from the text of the source: active = GI50 up to about 1.1 µM and inactive = higher. Where a SMILES comes first, the peptide text is derived from it. Square brackets hold non-standard residues; d marks the D form. Peptide text beside a SMILES is read from it. The star is where a group is joined. pGlu = O=C1CC[CH](C(=O)O)N1; Cbz = O=C(OCc1ccccc1)*; Bn = c1ccc(C*)cc1
Your reply should match one of these outcome classes. active, inactive

compound=C/C=C/c1cc2c(c(=O)o1)C(=O)[C@@H](O)[C@H](C)O2 answer_label=inactive
compound="CC(NC(=O)C(Cc1c[nH]cn1)NC(=O)C1CCC(=O)N1)C(N)=O (stereo not drawn) ([pGlu]-His-Ala-NH2; configuration not given here)" answer_label=inactive
compound="COC(=O)C(Cc1ccc(O)cc1)NC(=O)C(COCc1ccccc1)NC(=O)OCc1ccccc1 (centres undefined) (Cbz-Ser(Bn)-Tyr-OMe; configuration not given here)" answer_label=inactive
compound=O=C(/C=c1\oc(=O)/c(=C/C(=O)c2ccc(Cl)cc2)oc1=O)c1ccc(Cl)cc1 answer_label=inactive
compound=COc1cc(OC)c2nc(C)c3c(c2c1)OCC3 answer_label=inactive

Give the logged outcome of this assay for the following compound: NCC(=O)NC(CO)C(=O)O (centres undefined)
inactive

And then COc1c(C)c2nc3ccccc3nc2c2c(O)ccnc12 , what is it?
inactive

O=C1C(Br)=C(Br)C(=O)c2c(O)ccc(O)c21 , same question.
inactive

Consider next the compound CN(C)c1ccc(C(=N/N=C2\C(=O)Nc3ccccc32)c2ccc(N(C)C)cc2)cc1 in the same way.
active

----------
Tested on: UACC-62
Test: NCI tumour cell line growth inhibition, 48 h
Active and inactive are the calls of the source. Cut-off read from the data, not from the text of the source: active = GI50 up to about 1.1 µM and inactive = higher.
Consider the following molecules and their measured GI50 readings.

Below, each entry is followed by its recorded GI50 result.
molecule=CN(C)c1ccc(C(=N/N=C2\C(=O)Nc3ccccc32)c2ccc(N(C)C)cc2)cc1 readout_kind=GI50 obs_value="0.37 µM (active)"
molecule="NC(=O)C1N=NSC1NC(=O)c1ccc([N+](=O)[O-])cc1 (stereo not given)" readout_kind=GI50 obs_value="49.4 µM (inactive)"
molecule="CC(C)=CCc1ccc2[nH]c3c(c2c1)C(=O)C(=O)C(C)=C3C(O)C(C)O (stereo not given)" readout_kind=GI50 obs_value="5.52 µM (inactive)"

Fill in the recorded GI50 for this molecule, with UACC-62 as test system: CC(C)NCC(O)c1ccc(O)c2ncccc12 (stereo not given)
60 µM (inactive)

Consider next the molecule COc1ccc(C(=O)N2c3ccccc3N(C)n3cccc3C2CC(=O)O)cc1 (stereo not given) in the same way.
> 100 µM (inactive)

----------
Test system: Hs-578T
Experiment: NCI tumour cell line growth inhibition, 48 h
Calls of active or inactive are those of the source. Rule as the data show it: active = GI50 up to about 1.1 µM and inactive = higher.
Select the correct class. Options are active, inactive and nothing else.

compound="CC(=O)N1OC(C)CC1Nc1ccc(Br)cc1 (stereo not given)" answer_label=inactive
compound="CCC1(OC(=O)CNC)C(=O)OCc2c1cc1n(c2=O)Cc2cc3ccccc3nc2-1 (stereo not given)" answer_label=active
compound="CC(=O)Nc1ccc(C(O)/C(=N/N)c2nc3ccc(Cl)cc3nc2O)cc1 (stereo not given)" answer_label=inactive
compound="COc1cc(OC2OC(COC(=O)c3cc(O)c(O)c(O)c3)C(O)C(O)C2O)ccc1O (stereo not given)" answer_label=inactive
compound="COc1cc(C2c3cc(OC)c(OC)c(O)c3C(=O)C3CCC(=O)N32)cc(OC)c1OC (stereo not given)" answer_label=inactive
compound=O=C1CSCc2sccc21 answer_label=inactive
compound="COc1cc2c3c(cc(Cl)nc3c1OC)C(O)(CC(C)=O)C(=O)N2 (stereo not given)" answer_label=inactive
compound=Cn1c(-c2cccc(N)c2)[n+](C)c2ccccc21 answer_label=inactive

Recorded call for Cc1cc2c(Br)cc(Br)c(O)c2nc1C(=O)c1ccccc1 ?
inactive

And the next one, NNC(=O)c1ccccc1Nc1ccccc1C(=O)NN ?
inactive

Thanks! And CC1(C)CC(=O)c2c(nc3ccc4ccccc4c3c2-c2ccc(NC(=O)CCCCC(=O)Nc3ccc(-c4c5c(nc6ccc7ccccc7c46)CC(C)(C)CC5=O)cc3)cc2)C1 ?
inactive

Same lookup for COC(=O)c1ccc2c(c1)C(NC(C)=O)CCc1cc(OC)c(OC)c(OC)c1-2 (stereo not given) , please.
active

And what about the compound Cc1ccc(-c2c(C#N)c(N)nc3c2CCS(=O)(=O)c2ccccc2-3)cc1 ?
inactive

Also check O=C1C(Br)=C(Br)C(=O)c2c(O)ccc(O)c21
inactive

Please do the same for OC(c1ccoc1)c1cc2ccccc2s1 (stereo not given) as well.
inactive

Now try CC(C)(C)c1ccc2c(c1)CNCCNCCNCc1cc(C(C)(C)C)ccc1OCC1(CO2)COc2ccc(C(C)(C)C)cc2CNCCNCCNCc2cc(C(C)(C)C)ccc2OC1 .
inactive

Proceed to COc1cccc(Nc2nc(-c3cccs3)nc3ccc(Br)cc23)c1
inactive

Please answer likewise for O=C(C(Cl)=C(N1CCCCC1)N1CCCCC1)C(Cl)Cl
inactive

Then CCOC(=O)/C=C(/C(=O)OCC)n1ccc(=O)[nH]c1=O ?
inactive

Continue with Nc1nc(Cl)cc(NCC2(CO)COC2)n1
inactive

What about CN(C)CCN(C)c1ccc2c(=O)n(CCN(C)C)c(=O)n3c4ccccc4c(=O)c1c23 ?
inactive

Again, but for N/C(S)=N/N=C/c1ccc(O)cn1
inactive

Request: COc1ccc(NC(S)=Nc2ccccc2)cc1
inactive

Proceed to CCC(C)C(NC(=O)C(CCCCN)NC(=O)C(NC(=O)C(CCC(N)=O)NC(=O)C(CCCNC(=N)N)NC(C)=O)C(C)CC)C(=O)NC(Cc1c[nH]c2ccccc12)C(=O)NC(Cc1ccccc1)C(=O)NC(CCC(N)=O)C(=O)NC(CC(N)=O)C(=O)NC(CCCNC(=N)N)C(=O)NC(CCCNC(=N)N)C(=O)NC(CCSC)C(=O)NC(CCCCN)C(=O)NC(Cc1c[nH]c2ccccc12)C(=O)NC(CCCCN)C(=O)NC(CCCCN)C(N)=O (stereo not given)
inactive

Also CSc1nc(-c2ccccc2)nc(C(C#N)C#N)n1 ?
inactive

What do we get for COc1cccc(C2SC(=N)Nc3c2c(C)nn3C(=O)Cc2ccccc2)c1 (stereo not given) ?
inactive

Next entry: COc1c(C)c2nc3ccccc3nc2c2c(O)ccnc12
inactive
